- TEST METHOD NOTES: Plasma protein binding, equilibrium dialysis
- Type: in vitro ADME
- CONDITION: human plasma dialysed against phosphate buffer, pH 7.4, mass recovery from the dialysis device
PARAMETER: recovery at 6 h, 0.2 μM (%)
Give the quantity in %, number only.

Take a look at these entries with their results.
>>> df
                                   compound                parameter  observed_value
0  [2H]C1C([2H])[C@@H]2C[C@H]1[C@@H]1C(=O)N(CCCC([2H])([2H])N3CCN(c4ncccn4)CC3)C(=O)[C@@H]12 (stereo partly drawn)  recovery at 6 h, 0.2 μM              96
1  [2H]C([2H])(CN1C(=O)[C@@H]2[C@@H]3CC[C@@H](C3)[C@@H]2C1=O)C([2H])([2H])C([2H])([2H])N1CCN(c2ncccn2)CC1  recovery at 6 h, 0.2 μM             111

Consider the additional compound presented here.
Output measured recovery at 6 h, 0.2 μM for this item: [2H]c1cnc(N2CCN(C([2H])([2H])CCCN3C(=O)[C@@H]4[C@H](C3=O)[C@H]3C[C@@H]4C([2H])C3[2H])CC2)nc1 (stereo partly drawn)
94
